test: protein stability index of a GFP-peptide fusion (GPS, HEK-293T) (PSI 1-6); higher = more stable;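 further: 24-mer peptide tiles fused after GFP, lentivirally expressed, FACS-sorted into six equal bins by GFP/DsRed ratio, decoded by Illumina sequencing, PSI is the read-weighted mean bin number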
study conditions: treatment: DMSO; c terminus: a fixed tail appended
protein stability index below 3 gives f; protein stability index at or above it gives t.

Observe how each entry below is paired with its result.
ordered residues | assigned category
LHKQVLMGPYNPDTCPEVGFFDVL [ACBD3] | f
TRVNLSSDTESTDLPSSTPVANSG [DLC1] | t
LVRGHRRRLLRRLSPSRGVAQCLR [ZSWIM9] | t

Please indicate if the recorded protein stability index for REAMLEMLLQHQICKEVQAEQEPT [SPAG8] meets or exceeds 3.
t

Could you verify whether the entry LTGTESPFDLEQQWQDLMSIMEMQ [NFE2L1] shows protein stability index of no less than 3?
t

---

Catalogue of protein stability index readings, one per entry.
test: protein stability index of a GFP-peptide fusion (GPS, HEK-293T) (PSI 1-6); higher = more stable
study conditions: treatment: DMSO; c terminus: a fixed tail appended
# respond with the number and nothing more

ordered residues | result type | numeric readout
PIPVVFVLRHFHLLSDGSNTLSVS [SLC6A17] | protein stability index | 2.83
TRPSGNNGNRRRRKLRKTVNGDGS [PHTF1] | protein stability index | 4.83
SLKDQERVAEVSRVRVELQEQNGR [LRRC45] | protein stability index | 5.17
GAQFEGEKGRALQIRDWRGGRLEN [ZSWIM9] | protein stability index | 4.24
TTKGTSEMSEKRGPTSSNPRKRHR [MLH1] | protein stability index | 5.14
VSSEDSFVCQCFEGYILREDGKTC [MATN2] | protein stability index | 3.04

Now, please, on to the next sequence.
Query GTGRSAKEQVLRKGTENLQRAQAE [FCHSD1] yields protein stability index of 5.09

---

test: protein stability index of a GFP-peptide fusion (GPS, HEK-293T) (PSI 1-6); higher = more stable
study conditions: treatment: MLN4924 1 uM, 8 h; c terminus: a fixed tail appended
result type: protein stability index
// return a plain number; no unit text

Field: example entries. Status: answers known.
ordered residues | protein stability index
KQPNCSSLFKLKPLSNKTATDDTG [PLD5] | 4.77
NLAFGRRCEELEDARYKLHHHLHK [TEKT4] | 3.2
LFMKKNHEEEVKGLQAQIASSGLT [KRT18] | 3.98

Measured protein stability index of SRAGGPTTPLSPTRLSRLQEKEEL [LMNB1] : 5.36

Lookup result for DLLCKTSHLSDTGISALVEIPKNC [WDR41] ; measured protein stability index: 2.78

---

test: protein stability index of a GFP-peptide fusion (GPS, HEK-293T) (PSI 1-6); higher = more stable
study conditions: treatment: DMSO; c terminus: a fixed tail appended
Entries annotated with measured protein stability index
Reply: number alone, nothing else.

// solved cases for protein stability index follow
ordered residues | protein stability index
NDNSSDLLYDDLYDDDIDDEDEEE [UBE2R2] | 5.61
QVVGQVNVEMDATPGIDLTRVLAE [KRT13] | 4.07
AGLLIIVLAIIAREGDCAPEEKIW [MAGEA3] | 3.25
VPTPLTNVQILLPVGEPVTNVRLQ [FCHO1] | 3.35
LSDSGAFRRSLHDPDGLVATYISE [APMAP] | 4.12
QALKRKKRFEKQLTQIDGTLSTIE [CHMP4C] | 4.05
HGPDLYPKFKKWCDDYFFIAHRGE [CPOX] | 2
LVQDLVDSLKFAVLMWLLTYVGAL [RTN1] | 2.94
DCMLSEEGATLLLRGLCANTVLRF [LRRC45] | 2.44
HHKTYDPTYSDFCQFRPPVRVNDG [VDR] | 3.38

The sequence listed as TSEQAPSSAPRDVQARMLSSTTIL [PTPRD] shows protein stability index equal to 4.08

Per the records, this sequence ( PVTCCDVSSNNRLVVTGSGEHASV [TLE6] ) has protein stability index equal to 4.19

protein stability index in this record for SWVTDMCKVGASSDPCGQLRPTLL [PNLIPRP1] : 2.14
